TEST TARGET: Pks13-TE (Mycobacterium tuberculosis)
Sequence (I6X8D2 1451-1733): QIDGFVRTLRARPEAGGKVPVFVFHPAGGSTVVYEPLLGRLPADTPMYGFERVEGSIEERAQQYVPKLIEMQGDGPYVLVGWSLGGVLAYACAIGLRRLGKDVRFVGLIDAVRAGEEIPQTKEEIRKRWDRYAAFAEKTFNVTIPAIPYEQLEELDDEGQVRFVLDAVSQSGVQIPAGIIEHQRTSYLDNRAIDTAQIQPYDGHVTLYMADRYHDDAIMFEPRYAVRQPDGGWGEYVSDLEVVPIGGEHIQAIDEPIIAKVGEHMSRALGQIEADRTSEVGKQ
ASSAY EXPLANATION: biochemical
Type: binding
CONDITION NOTES: Pks13-TE 30 µM, compound 300 µM (1:10), 3% DMSO; average of three measurements
Catalogue of ΔTm at 300 µM values
# number then unit; no other words

// worked examples, ΔTm at 300 µM included
# COMPOUND, ΔTm at 300 µM
data = [
    ("CC(=O)c1c(C)n(-c2ccc(N(C)C)cc2)c2ccc(O)c(CN3CCCC3)c12 [Compound 52]", "10.3 °C"),
    ("CCOC(=O)c1c(C)n(-c2ccccc2)c2ccc(O)c(CN3CCCCC3)c12 [Compound 28]", "7.8 °C"),
    ("CC(=O)c1c(C)n(-c2ccc(N3CCCCC3)cc2)c2ccc(O)c(CN3CCCCC3)c12 [Compound 48]", "14 °C"),
    ("CC(=O)c1c(C)n(-c2ccc(Br)cc2)c2ccc(O)c(CN3CCCCC3)c12 [Compound 58]", "7.6 °C"),
    ("CC(=O)c1c(C)n(-c2ccc(-c3ccccc3)cc2)c2ccc(O)c(CN3CCCCC3)c12 [Compound 45]", "13.2 °C"),
    ("CCOC(=O)c1c(-c2ccc(O)cc2)[nH]c2ccc(O)c(CN3CCCCC3)c12 [Compound 14]", "4.9 °C"),
]

Would you kindly look at the next entry?
Enquiry: May I ask what ΔTm at 300 µM has been recorded for O=c1oc2cc(O)ccc2c2oc3ccc(O)c(CN4CCCCC4)c3c12 [Compound 7, reference compound] ?
Return: 10.5 °C

----------
TEST TARGET: Pks13-TE (Mycobacterium tuberculosis)
ASSAY EXPLANATION: biochemical
Format: binding
CONDITION NOTES: Pks13-TE 30 µM, compound 150 µM (1:5), 3% DMSO; average of three measurements
PROPERTY LABEL: ΔTm at 150 µM (°C)
Report only the number, with the unit °C understood.

// worked examples, ΔTm at 150 µM included
# COMPOUND, UNITS SYMBOL, ΔTm at 150 µM
data = [
    ("CCOC(=O)c1c(-c2ccc(O)cc2)[nH]c2ccc(O)c(CN3CCCCC3)c12", "°C", 5.5),
    ("CC(=O)c1c(C)n(-c2ccc(N3CCCCC3)cc2)c2ccc(O)c(CN3CCCCC3)c12", "°C", 14.6),
    ("CCOC(=O)c1c(C)n(-c2ccccc2)c2ccc(O)c(CN3CCCCC3)c12", "°C", 8.6),
    ("CC(=O)c1c(C)n(-c2ccc(N(C)C)cc2)c2ccc(O)c(CN3CCCC3)c12", "°C", 11.4),
    ("O=c1oc2cc(O)ccc2c2oc3ccc(O)c(CN4CCCCC4)c3c12 [Compound 7, reference compound]", "°C", 11.4),
]

Enquiry: May I ask what ΔTm at 150 µM has been recorded for CC(=O)c1c(C)n(-c2ccc(Br)cc2)c2ccc(O)c(CN3CCCCC3)c12 ?
Return: 9.5

Enquiry: May I ask what ΔTm at 150 µM has been recorded for CC(=O)c1c(C)n(-c2ccc(-c3ccccc3)cc2)c2ccc(O)c(CN3CCCCC3)c12 ?
Return: 14
